B1: Osa-1-4 twister ribozyme (parent)
chain: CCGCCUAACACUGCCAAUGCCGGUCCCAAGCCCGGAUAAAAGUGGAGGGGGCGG

- Variants of: B1
- ASSAY_PROTOCOL: self-cleavage, relative activity (ratio to wild type); higher = more cleavage; co-transcriptional
Measured self-cleavage of individual entries
PROPERTY_MEASURED: self-cleavage

[
  {
    "CONSTRUCT_SEQUENCE": "CCGCCUAACACUGCCAAUGCCGGUCCCAAGCCCGGAUCACAGUGGAGGGGGCGG [A38C A40C]",
    "RESULT_VALUE": 0.09
  },
  {
    "CONSTRUCT_SEQUENCE": "CCGCCUAACACUGCGAAUGCCGGUCCCAAGUCCGGAUAAAAGUGGAGGGGGCGG [C15G C31U]",
    "RESULT_VALUE": 0.09
  },
  {
    "CONSTRUCT_SEQUENCE": "CCGCCUAACACUGCCAAUGCCGGUCACAAGCCCGGAUAAAAGUGGAGGCGGCGG [C26A G49C]",
    "RESULT_VALUE": 0.02
  },
  {
    "CONSTRUCT_SEQUENCE": "CCGCCUAACACUGUCAACGCCGGUCCCAAGCCCGGAUAAAAGUGGAGGGGGCGG [C14U U18C]",
    "RESULT_VALUE": 0.51
  },
  {
    "CONSTRUCT_SEQUENCE": "CCGCCUAACACUGCCAAGGCCGGUCCCAAGCCCGUAUAAAAGUGGAGGGGGCGG [G35U U18G]",
    "RESULT_VALUE": 0.77
  },
  {
    "CONSTRUCT_SEQUENCE": "CCGCCUAACACUGCCAAUGCGGGUCCCAAGCACGGAUAAAAGUGGAGGGGGCGG [C21G C32A]",
    "RESULT_VALUE": 0.03
  },
  {
    "CONSTRUCT_SEQUENCE": "CCGCCUAACACUGCCAAUGCCGGUCCCAAGCCCGGAUAAAAGUGGAGGGUACGG [G50U G51A]",
    "RESULT_VALUE": 0.66
  },
  {
    "CONSTRUCT_SEQUENCE": "CCGCCUAACACUGCCAAUACCGGUCCCAAUCCCGGAUAAAAGUGGAGGGGGCGG [G19A G30U]",
    "RESULT_VALUE": 0.06
  },
  {
    "CONSTRUCT_SEQUENCE": "CCGCCUAACACUGCCAAUGCCGGUCCCAAGACCGGAUAAACGUGGAGGGGGCGG [A41C C31A]",
    "RESULT_VALUE": 0.04
  },
  {
    "CONSTRUCT_SEQUENCE": "CCGCCUAACACUGCCAAUGCCGGUCCCAAGCCCGGAUAAAAGUGCAGGGGGGGG [C52G G45C]",
    "RESULT_VALUE": 0.1
  },
  {
    "CONSTRUCT_SEQUENCE": "CCGCCUAACACUGCCAAUUCCGGUGCCAAGCCCGGAUAAAAGUGGAGGGGGCGG [C25G G19U]",
    "RESULT_VALUE": 0.04
  },
  {
    "CONSTRUCT_SEQUENCE": "CCGCCUAAAACUGCCAAUGCCGGUCCCAAGCCCGGAUAAAAGCGGAGGGGGCGG [C9A U43C]",
    "RESULT_VALUE": 0.07
  },
  {
    "CONSTRUCT_SEQUENCE": "CCGCCUAACACUGCCAAUGCCGGUCCCAAGCCCGGAUAAACGUGGAGGGGGUGG [A41C C52U]",
    "RESULT_VALUE": 1.03
  },
  {
    "CONSTRUCT_SEQUENCE": "CCGCCUAACACUGCUCAUGCCGGUCCCAAGCCCGGAUAAAAGUGGAGGGGGCGG [A16C C15U]",
    "RESULT_VALUE": 0.62
  },
  {
    "CONSTRUCT_SEQUENCE": "CCGCCUAACACUGCCAAUGCCGGUCUCAAGCCCGGAUAAAAGCGGAGGGGGCGG [C26U U43C]",
    "RESULT_VALUE": 0.14
  },
  {
    "CONSTRUCT_SEQUENCE": "CCGCCUAACAAUGCCAAUGCCGGUCCCAAGCCAGGAUAAAAGUGGAGGGGGCGG [C11A C33A]",
    "RESULT_VALUE": 0.06
  },
  {
    "CONSTRUCT_SEQUENCE": "CCGCCUAACACUGCCAAUGCCGGUCCCAAGCCCGGAUAAAUGCGGAGGGGGCGG [A41U U43C]",
    "RESULT_VALUE": 0.33
  },
  {
    "CONSTRUCT_SEQUENCE": "CCGCCUAACACUGCCAAUGCAGCUCCCAAGCCCGGAUAAAAGUGGAGGGGGCGG [C21A G23C]",
    "RESULT_VALUE": 0.03
  }
]
